Experiment: clinical
Settings: both, human, plasma and urine, oral
Measure name: half-life

[[record]]
compound = "Cn1cnc(CC(NC(=O)CCN)C(=O)O)c1 (stereo not shown)"
readout_value = "12 min"


* * *

Below: a set of entries, each annotated with reported half-life at 20 µM.
Molecular target: CN1 enzyme (Homo sapiens)
Construct: Fasted venous heparin plasma was collected from 6 subjects (5 males and 1 female) with a wide range in CN1 enzyme activity; from tissue; host or cells: human venous heparin plasma from 6 volunteers
Test: In vitro degradation of carnosine, anserine and balenine added to human heparin plasma
Assay type: in vitro ADME
Conditions: both sexes, human, heparin plasma, 20 µM added to human heparin plasma, 37 °C, 6 subjects; read-out: Half-life in plasma
Measure name: half-life at 20 µM

[[record]]
molecule = "NCCC(=O)N[C@@H](Cc1cnc[nH]1)C(=O)O [carnosine, β-alanyl-L-histidine, reference compound]"
readout_value = "1.2 min"

[[record]]
molecule = "Cn1cnc(CC(NC(=O)CCN)C(=O)O)c1 [balenine, β-alanyl-N(τ)-methyl-L-histidine]"
readout_value = "34.9 min"

[[record]]
molecule = "Cn1cncc1C[C@H](NC(=O)CCN)C(=O)O [anserine, β-alanyl-N(π)-methyl-L-histidine, reference compound]"
readout_value = "2.14 min"


* * *

Assay: In vivo pharmacokinetic experiment: plasma and urine balenine after acute oral ingestion
Set-up: species or system human
Conditions: both sexes, human, plasma, po, 1 mg/kg, 1 mg/kg oral, human, n = 6; read-out: Cmax (peak plasma concentration)
Measure name: Cmax (nM)

[[record]]
compound = "Cn1cnc(CC(NC(=O)CCN)C(=O)O)c1 (stereo not shown)"
unit_text = "nM"
readout_value = 1600


* * *

Target: CN1 enzyme (Homo sapiens)
Construct: Fasted venous heparin plasma was collected from 6 subjects (5 males and 1 female) with a wide range in CN1 enzyme activity; from tissue; host or cells: human venous heparin plasma from 6 volunteers
Sequence (Q96KN2 26-507): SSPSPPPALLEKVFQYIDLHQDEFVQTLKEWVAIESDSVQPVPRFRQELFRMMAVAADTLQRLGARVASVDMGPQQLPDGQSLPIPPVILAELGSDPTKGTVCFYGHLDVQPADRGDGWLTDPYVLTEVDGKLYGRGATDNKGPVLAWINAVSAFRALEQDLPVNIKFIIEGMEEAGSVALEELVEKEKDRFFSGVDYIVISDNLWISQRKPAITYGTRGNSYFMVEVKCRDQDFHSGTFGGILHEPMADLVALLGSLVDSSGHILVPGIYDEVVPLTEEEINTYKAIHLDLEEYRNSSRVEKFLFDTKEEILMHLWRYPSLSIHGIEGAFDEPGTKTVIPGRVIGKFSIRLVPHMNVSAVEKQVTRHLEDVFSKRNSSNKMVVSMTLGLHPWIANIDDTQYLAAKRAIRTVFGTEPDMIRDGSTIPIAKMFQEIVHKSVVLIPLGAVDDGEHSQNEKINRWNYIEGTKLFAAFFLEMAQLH
Experiment: In vitro degradation of carnosine, anserine and balenine added to human heparin plasma
Assay type: in vitro ADME
Details: human, heparin plasma, in vitro; read-out: Half-life in plasma with the highest CN1 activity
Measure name: half-life at 20 µM

[[record]]
compound = "Cn1cnc(CC(NC(=O)CCN)C(=O)O)c1 (stereo not shown)"
measure_name = "half-life at 20 µM"
readout_value = "15 min"

